system_name: GluA1/2 (Homo sapiens, UniProt P42261+P42262)
Construct: expressed in transfected cells; host or cells: HEK293T
Sequence (P42262 25-883 isoform P42262-2 limits assumed, one chain of several): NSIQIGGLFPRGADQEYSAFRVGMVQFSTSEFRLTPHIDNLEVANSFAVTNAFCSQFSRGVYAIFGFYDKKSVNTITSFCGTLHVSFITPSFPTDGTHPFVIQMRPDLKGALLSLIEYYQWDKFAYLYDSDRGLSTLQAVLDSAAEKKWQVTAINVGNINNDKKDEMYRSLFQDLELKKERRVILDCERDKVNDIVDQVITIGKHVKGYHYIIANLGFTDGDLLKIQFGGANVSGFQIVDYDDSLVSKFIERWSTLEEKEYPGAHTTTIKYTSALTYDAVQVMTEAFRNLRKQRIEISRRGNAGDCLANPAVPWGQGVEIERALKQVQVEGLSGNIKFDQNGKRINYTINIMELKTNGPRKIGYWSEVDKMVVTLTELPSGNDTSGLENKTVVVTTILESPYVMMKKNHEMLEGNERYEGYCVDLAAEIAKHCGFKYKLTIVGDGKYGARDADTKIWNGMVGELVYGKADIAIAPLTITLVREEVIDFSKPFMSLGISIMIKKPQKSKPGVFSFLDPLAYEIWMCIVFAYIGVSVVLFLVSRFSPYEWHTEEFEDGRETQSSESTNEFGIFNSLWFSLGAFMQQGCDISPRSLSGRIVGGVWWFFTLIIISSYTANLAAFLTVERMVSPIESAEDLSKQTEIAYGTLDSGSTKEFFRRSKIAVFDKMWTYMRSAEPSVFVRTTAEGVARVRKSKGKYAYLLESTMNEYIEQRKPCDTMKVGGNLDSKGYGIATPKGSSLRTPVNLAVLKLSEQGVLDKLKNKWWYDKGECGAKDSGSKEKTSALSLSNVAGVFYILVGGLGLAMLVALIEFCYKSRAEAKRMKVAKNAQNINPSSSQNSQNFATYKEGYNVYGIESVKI
measurement_protocol: Whole-cell patch-clamp recordings of heteromeric GluA1/2 AMPAR in transfected HEK293T cells
Format: cell-based
run_parameters: 10 mM glutamate + TC compound (12 µM optimal concentration), HEK293T, -60 mV, pH 7.4, 22 °C, mean ± SEM, n = 10
# Amplitude (glutamate plus TC compound) per record follows
measure: Amplitude (glutamate plus TC compound) (pA)

structure_as_smiles	system_name	assay_value
COc1ccc(-c2nc(C(=O)Nc3cc(OC)c(OC)c(OC)c3)cs2)cc1	GluA1/2 (Homo sapiens, UniProt P42261+P42262)	115
COc1ccc(-c2nc(C(=O)Nc3ccc(OC)c(OC)c3)cs2)cc1	GluA1/2 (Homo sapiens, UniProt P42261+P42262)	126
COc1ccc(-c2nc(C(=O)Nc3cc(OC)ccc3OC)cs2)cc1	GluA1/2 (Homo sapiens, UniProt P42261+P42262)	123
COc1ccc(-c2nc(C(=O)Nc3ccccc3)cs2)cc1	GluA1/2 (Homo sapiens, UniProt P42261+P42262)	197
COc1ccc(-c2nc(C(=O)Nc3ccc(C(C)(C)C)cc3)cs2)cc1	GluA1/2 (Homo sapiens, UniProt P42261+P42262)	221

====

# t deact per record follows
system_name: GluA1 (Homo sapiens)
Construct: expressed in transfected cells; host or cells: HEK293T
Sequence (P42261 19-906 isoform P42261-2 limits assumed, species assumed): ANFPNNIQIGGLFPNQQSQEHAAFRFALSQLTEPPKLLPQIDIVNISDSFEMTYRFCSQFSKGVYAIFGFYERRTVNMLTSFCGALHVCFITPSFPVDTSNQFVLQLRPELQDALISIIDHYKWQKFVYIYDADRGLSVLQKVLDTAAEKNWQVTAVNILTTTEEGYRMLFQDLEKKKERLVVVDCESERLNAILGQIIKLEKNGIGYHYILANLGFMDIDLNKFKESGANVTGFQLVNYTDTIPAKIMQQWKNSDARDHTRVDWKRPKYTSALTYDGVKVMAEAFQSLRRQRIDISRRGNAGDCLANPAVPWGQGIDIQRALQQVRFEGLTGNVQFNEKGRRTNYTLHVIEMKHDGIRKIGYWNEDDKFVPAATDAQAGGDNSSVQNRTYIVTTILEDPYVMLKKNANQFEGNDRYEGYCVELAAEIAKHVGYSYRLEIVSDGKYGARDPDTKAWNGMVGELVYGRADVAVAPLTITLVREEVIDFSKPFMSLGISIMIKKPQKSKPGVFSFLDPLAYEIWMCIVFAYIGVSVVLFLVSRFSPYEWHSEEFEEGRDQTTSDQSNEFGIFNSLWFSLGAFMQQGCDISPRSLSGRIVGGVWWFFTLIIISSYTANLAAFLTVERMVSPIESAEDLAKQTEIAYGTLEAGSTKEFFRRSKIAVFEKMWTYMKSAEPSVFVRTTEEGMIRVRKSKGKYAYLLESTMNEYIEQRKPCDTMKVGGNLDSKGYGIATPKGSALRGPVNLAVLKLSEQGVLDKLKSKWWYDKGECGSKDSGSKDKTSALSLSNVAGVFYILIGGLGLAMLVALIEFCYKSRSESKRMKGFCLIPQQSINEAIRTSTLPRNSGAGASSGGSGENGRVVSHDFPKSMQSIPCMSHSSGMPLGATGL
measurement_protocol: Whole-cell patch-clamp recordings of homomeric GluA1 AMPAR in transfected HEK293T cells
Type: cell-based
run_parameters: GluA1; weighted tau of deactivation, 10 mM glutamate for 1 ms, with TC compound; glutamate alone 2.1±0.1
measure: t deact (ms)

compound	assay_value
COc1ccc(-c2nc(C(=O)Nc3ccc(OC)c(OC)c3)cs2)cc1 [TC-1]	5.3
COc1ccc(-c2nc(C(=O)Nc3ccccc3)cs2)cc1 [TC-3]	3.0
COc1ccc(-c2nc(C(=O)Nc3cc(OC)c(OC)c(OC)c3)cs2)cc1 [TC-2]	5.6
COc1ccc(-c2nc(C(=O)Nc3ccc(C(C)(C)C)cc3)cs2)cc1 [TC-4]	2.9
COc1ccc(-c2nc(C(=O)Nc3cc(OC)ccc3OC)cs2)cc1 [TC-5]	5.5
